Origin of the recorded values: ChEMBL document CHEMBL1201862

- Tested on: SK-OV-3
- TEST DESCRIPTION: NCI tumour cell line growth inhibition, 48 h
The source made the active and inactive calls. No stated cut-off is given here; in the data, active = GI50 up to about 1.1 µM and inactive = higher. Where a SMILES comes first, the peptide text is derived from it. [ ]: non-standard residue; d: D form. The star is where a group is joined. ξ: configuration not given here. ξD = NC(CC(=O)O)C(=O)O; Boc = CC(C)(C)OC(=O)*; Aib = CC(C)(N)C(=O)O; OtBu = CC(C)(C)O*
Bench note: report the call from 1 (yes) = active, 0 (no) = inactive

Given `CCN(CC)CCC(=O)c1ccc(Oc2ccccc2)cc1` , state the outcome it received in this test.
0 (no)

Given O=c1c(O)cccn1C1OC(CO)C(O)C1O (centres undefined) , state the outcome it received in this test.
0 (no)

Given O=C1C(Br)=CC2([N+](=O)[O-])CCNC3=C(C4=NCCc5c[nH]c(c54)C3=O)C2=C1Br (centres undefined) , state the outcome it received in this test.
0 (no)

Given O=C(NN1C(=O)C(Cl)C1c1ccccc1O)c1ccccc1O (centres undefined) , state the outcome it received in this test.
0 (no)

Given `CCSC(SCC)=C1C(=O)N(c2ccccc2)N=C1C` , state the outcome it received in this test.
0 (no)

Given `C=CCNC1=C2C[C@@H](C)C[C@@H](OC)[C@H](OC(=O)CN)[C@H](C)/C=C(\C)[C@@H](OC(N)=O)[C@H](OC)/C=C\C=C(/C)C(=O)NC(=CC1=O)C2=O` , state the outcome it received in this test.
1 (yes)

Given `CC(C)C(=O)/C=C/c1c(Cl)cccc1Cl` , state the outcome it received in this test.
0 (no)

Given `O=C(c1cccs1)N(C(=S)N1CCN(c2ccccn2)CC1)C1CCCCC1` , state the outcome it received in this test.
0 (no)

Given CCOC(=O)C(Cc1ccc(N=NN(C)C)cc1)NC(=O)CC1c2ccccc2-c2ccccc21 (centres undefined) , state the outcome it received in this test.
0 (no)

Given `COc1ccc(S(=O)(=O)N(CC(=O)O)c2ccccc2)cc1` , state the outcome it received in this test.
0 (no)

Given COC(=O)C(C)(C)NC(=O)C(C)(C)NC(=O)C(CC(=O)OC(C)(C)C)NC(=O)OC(C)(C)C (centres undefined) (Boc-[ξD](OtBu)-[Aib]-[Aib]-OMe) , state the outcome it received in this test.
0 (no)

Given `C=CCn1c2c(c3ccccc3c1=O)C(=O)c1ccccc1-2` , state the outcome it received in this test.
0 (no)

Given `Cc1ccc(N2C(=O)/C(=C3\SC(C(N)=O)=C(N)N3c3ccccc3)SC2=S)cc1` , state the outcome it received in this test.
0 (no)

Given `O=C(O)CCCc1ccc2c(c1)CC1(C2)Cc2cc3c(cc2C1)CCCC3` , state the outcome it received in this test.
0 (no)
